# Growth Rate annotations
Tested on: HEK-293T
PROTOCOL_DETAILS: Incucyte cell viability with HEK293T; also: unitless GR value; below 1 slowed growth and below 0 cell loss
Type: toxicity, cell-based
RECORDED_CONDITIONS: human, 18 h, 10 µM, compound concentration 10 uM, replicate number 1
Write no unit; give the number alone.

Recorded Growth Rate, per entry:
1) COc1ccc(CCCN2CCC(COC(c3ccccc3)c3ccccc3)CC2)cc1.Cl :: -0.02
2) Cc1ccc(-n2nc(C(C)(C)C)cc2NC(=O)Nc2ccc(OCCN3CCOCC3)c3ccccc23)cc1 [DORAMAPIMOD] :: 0.87
3) CC(C)(O)[C@H]1CC[C@H](Nc2ccc3ncc(-c4cccc(C(F)(F)F)c4)n3n2)CC1 [NUVISERTIB] :: -0.39

Q: Return value of Growth Rate for input O=C(O)[C@]1(Cc2cccc(Nc3nccs3)n2)CC[C@@H](Oc2cccc(Cl)c2F)CC1 [MK-5108] , no commentary.
Result: 0.47

Q: Return value of Growth Rate for input CC(C)C[C@H](NC(=O)c1cc2ccccc2s1)C(=O)N1CCN(C(=O)[C@H](CO)NS(=O)(=O)c2ccc(Cl)cc2Cl)CC1 , no commentary.
Result: 0.71

Q: Return value of Growth Rate for input Cc1cc(CN)cc(C)c1-c1ncn(C)c1-c1cncn1C.Cl , no commentary.
Result: 0.98

Q: Return value of Growth Rate for input Cc1c(NC(=O)COc2ccc(Cl)cc2C(=O)c2cc(F)cc(C(F)(F)F)c2)ccc(C(=O)O)c1F [BI 2540] , no commentary.
Result: 0.97

Q: Return value of Growth Rate for input CN(C)CCCNc1ccnc(Nc2cccc(Cl)c2)n1 , no commentary.
Result: -0.03
